molecular target: Luciferin 4-monooxygenase (Photinus pyralis) (UniProt P08659); assay: qHTS profiling assay for firefly luciferase inhibitor/activator using purifed enzyme and Km concentrations of substrates (counterscreen for miR-21 project); details: purified FLuc, luminescence inhibition; series mostly up to 57.5 µM; note: nearly all actives have a fitted effect of over 55% in size
Sequence (P08659 whole entry, looked up): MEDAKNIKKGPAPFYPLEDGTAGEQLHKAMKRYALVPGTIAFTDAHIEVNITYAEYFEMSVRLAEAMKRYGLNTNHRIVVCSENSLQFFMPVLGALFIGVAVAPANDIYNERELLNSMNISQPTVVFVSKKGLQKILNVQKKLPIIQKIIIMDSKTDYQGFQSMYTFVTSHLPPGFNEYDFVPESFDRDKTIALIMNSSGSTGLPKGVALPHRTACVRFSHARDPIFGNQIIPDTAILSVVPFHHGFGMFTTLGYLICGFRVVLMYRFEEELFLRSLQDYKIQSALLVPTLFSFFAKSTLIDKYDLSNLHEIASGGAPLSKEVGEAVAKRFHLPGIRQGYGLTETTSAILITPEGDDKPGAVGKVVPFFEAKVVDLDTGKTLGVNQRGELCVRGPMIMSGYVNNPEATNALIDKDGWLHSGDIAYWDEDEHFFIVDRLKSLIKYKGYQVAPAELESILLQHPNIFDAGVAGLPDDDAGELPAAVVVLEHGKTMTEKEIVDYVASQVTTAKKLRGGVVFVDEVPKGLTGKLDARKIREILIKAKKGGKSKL
Screen size: about 360,000 compounds; about 25,000 (6.9%) were called active. Another 9% or so got no clear call; they are omitted. Calls come from the whole dose curve; as a rule, active = well fitted inhibition curve with a large enough effect; inconclusive = small, poorly fitted or top-dose-only effect; inactive = flat fitted curve, though single readings scatter. This excerpt belongs to a sample that is enriched for actives.
Log the outcome using a class from active, inactive

Would you please look over these solved cases?
molecule: Cn1c(=O)c2c(nc(SCC(=O)Nc3ccc(F)cc3)n2Cc2ccc(Cl)cc2)n(C)c1=O
class: inactive
//
molecule: CSCCC(C(=O)NC1=NCCS1)N1C(=O)c2ccccc2C1=O (stereo not drawn)
class: inactive
//
molecule: COc1cc(C)c(Cl)cc1S(=O)(=O)n1ccnc1
class: inactive
//
molecule: COc1cc(C2c3c(oc4ccccc4c3=O)C(=O)N2c2nc(C)c(C)s2)ccc1O (stereo not drawn)
class: inactive
//
molecule: O=C(Nc1cccnc1Cl)c1cc(-c2cccc(Cl)c2)on1
class: inactive
//
molecule: CCOC(=O)c1ccc(NC(=S)N2CCCC2)cc1
class: inactive
//
molecule: O=C(COc1ccccc1)NCc1ccc2c(c1)CCN2C(=O)c1ccc(F)cc1
class: inactive
//
molecule: Cc1ccc(Nc2c(-c3ccc(C)s3)nc3ccccn23)cc1
class: active

Please indicate how the test categorized CCC(C)c1ccc(NC(=S)N2CCCC2)cc1 (stereo not drawn) . active

Given COc1ccc(-n2c(=O)c3sc4ccccc4c3n(CC(=O)Nc3cccc(C)c3)c2=O)cc1 , state the outcome it received in this test. inactive

Short answer needed: outcome of this test for Cc1sc2ncn(CC(=O)NCCCC(=O)N(C)Cc3ccccc3)c(=O)c2c1C ? inactive

How was CC[N+]1(CC)CC2=Cc3ccccc3CC2C1 (stereo not drawn) classified in this test? inactive

Query: recorded result category for Cc1ccc(C(=O)Nc2ccn(C)n2)cc1 in this test inactive

Could you please tell me the result logged for O=C(Nc1ccccc1C(F)(F)F)c1cc(-c2ccc(O)cc2)on1 in this assay? active

How was Oc1ccccc1-c1nc2ccc(Cl)cn2c1Nc1ccc2c(c1)OCCO2 classified in this test? inactive

What did the test return for Cc1ccc2nc(/C(C#N)=C/c3ccc(-c4ccc(C(=O)OC(C)C)cc4)o3)[nH]c2c1 ? inactive

Could you please tell me the result logged for COc1cc(C(=O)OC2CCOC2=O)c([N+](=O)[O-])cc1OC (stereo not drawn) in this assay? inactive

Please indicate how the test categorized CC(C)(C)Nc1c(-c2cccs2)nc2ccccn12 . inactive

Assay outcome for O=C(OC1CCOC1=O)c1ccc(-c2nc3ccccc3s2)s1 (stereo not drawn) : what was it? active

Write down the call the test reported for this molecule. Item: COc1ccccc1CNS(=O)(=O)c1cc(C(=O)NCc2ccccn2)c(Cl)cc1Cl inactive

Hello, I am checking results. What call was entered for CCC(CC)C(=O)N1CCc2cc(OC)c(OC)cc2C1COc1ccc(F)cc1 (stereo not drawn) ? inactive

I'd appreciate the recorded outcome for Cn1ccc(NC(=O)Nc2ccc(Cl)cc2)n1 from this test. active

What is the recorded call for this molecule in the test? CCN(CC)C(=O)CSc1nc2ccsc2c(=O)n1Cc1ccccc1Cl inactive

----------
target: Luciferin 4-monooxygenase (Photinus pyralis) (UniProt P08659); experiment: qHTS profiling assay for firefly luciferase inhibitor/activator using purifed enzyme and Km concentrations of substrates (counterscreen for miR-21 project); details: purified FLuc, luminescence inhibition; series mostly up to 57.5 µM; note: nearly all actives have a fitted effect of over 55% in size
The campaign covered roughly 360,000 compounds. About 25,000 (6.9%) were called active. Another 9% or so got no clear call; they are omitted. Calls follow the shape of the dose curve; as a rule, active = well fitted inhibition curve with a large enough effect; inconclusive = small, poorly fitted or top-dose-only effect; inactive = flat fitted curve, though single readings scatter. The sample as a whole holds a higher share of actives than the screen did.
In this exercise, the only acceptable responses are 1 = active, 0 = inactive

compound: COc1ccccc1C(=O)Nn1cnnc1
class: 0

Hey, what did the test say about COC(=O)[C@H](Cc1ccccc1)NC(=O)Nc1ccc(OC)cc1 ? 0

Record request — test call for COc1cc(C#Cc2ccc3cc(CCCO)oc(=O)c3c2)cc(OC)c1 1

Recorded test call requested for CCN1C(=O)c2ccccc2Sc2ccc(NC(=O)Cc3ccc(OC)cc3)cc21 0

Could you check what this test reported for Cc1ccc2nc(-c3ccccc3)cc(C(=O)O)c2c1 ? 1

I'd appreciate the recorded outcome for O=C(Nc1c(-c2ccc(F)cc2)nc2ccccn12)c1cccc(F)c1 from this test. 0

What is the recorded call for this compound in the test? CCOC(=O)c1c(C)[nH]c(C(=O)OCC(=O)N2CCCC2=O)c1C 1

----------
biological target: Luciferin 4-monooxygenase (Photinus pyralis) (UniProt P08659); assay: qHTS profiling assay for firefly luciferase inhibitor/activator using purifed enzyme and Km concentrations of substrates (counterscreen for miR-21 project); settings: purified FLuc, luminescence inhibition; series mostly up to 57.5 µM; note: nearly all actives have a fitted effect of over 55% in size
The campaign covered roughly 360,000 compounds. About 25,000 (6.9%) were called active. Inconclusive results (about 9%) are left out. Calls come from the whole dose curve; as a rule, active = well fitted inhibition curve with a large enough effect; inconclusive = small, poorly fitted or top-dose-only effect; inactive = flat fitted curve, though single readings scatter. Many of the other results were omitted from the sample, so actives are more common in it than they were.
Return exactly one item of active, inactive

compound: Cc1ccc(C(C[N+](=O)[O-])c2c(C)cc3ccccn23)cc1 (stereo not drawn)
class: inactive

Given CCCCCc1ccc(-c2cn(Cc3ccc4ccccc4c3)nn2)cc1 , state the outcome it received in this test. inactive

Outcome? COc1ccc(NC(=O)CCN2C(=O)/C(=C/c3ccc4c(c3)OCO4)SC2=S)cc1 inactive

Hello, I am checking results. What call was entered for CCOc1ccc(-c2cc(C)n3nc(C(=O)Nc4ccc(C)c(C)c4)cc3n2)cc1 ? inactive

----------
target: Luciferin 4-monooxygenase (Photinus pyralis); experiment: qHTS profiling assay for firefly luciferase inhibitor/activator using purifed enzyme and Km concentrations of substrates (counterscreen for miR-21 project); details: purified FLuc, luminescence inhibition; series mostly up to 57.5 µM; note: nearly all actives have a fitted effect of over 55% in size
In all, about 360,000 compounds went through this assay and about 25,000 (6.9%) were called active. About 9% were inconclusive and are not listed. The call rests on the fitted dose curve; in most records, active means well fitted inhibition curve with a large enough effect; inconclusive means small, poorly fitted or top-dose-only effect; inactive means flat fitted curve, though single readings scatter. The sample as a whole holds a higher share of actives than the screen did.
Tick one outcome: y (active), n (inactive)

molecule: NS(=O)(=O)c1ccc(NC(=O)COC(=O)c2cc3ccccc3oc2=O)cc1
class: n
//
molecule: O=C(NCc1ccco1)c1nn2cccnc2c1Cl
class: n
//
molecule: Cc1cc(NC(=O)c2cnn3cccnc23)n(-c2ccccc2)n1
class: n

Test call for this molecule, please: O=C(Nc1ccc(Cl)cn1)c1ccc2c(c1)OCCO2 y

Name the outcome recorded for Cc1ccc(-c2nc(CS(=O)(=O)CC(=O)NCc3ccccc3Cl)c(C)o2)cc1 in the assay. n

Status in this test for COc1ccc(Cl)cc1C(=O)OCC(=O)NCc1cccs1 ? n

Hi, sorry to bother you, what did the test record for C=CCc1cccc2cc(C(=O)OCC)c(=O)oc12 ? n

Could you kindly confirm the outcome this assay logged for CS(=O)(=O)c1ccc(-c2nnc(NC(=O)c3ccc4c(c3)OCCO4)o2)cc1 ? n

----------
target: Luciferin 4-monooxygenase (Photinus pyralis); assay: qHTS profiling assay for firefly luciferase inhibitor/activator using purifed enzyme and Km concentrations of substrates (counterscreen for miR-21 project); conditions: purified FLuc, luminescence inhibition; series mostly up to 57.5 µM; note: nearly all actives have a fitted effect of over 55% in size; note: potency is the fitted concentration of half-maximal effect
The whole screen tested about 360,000 compounds, of which about 25,000 (6.9%) were called active. Not shown: some 9% with an inconclusive outcome. Only a selection was taken, and actives are over-represented in it overall.
attributeMeasured: Potency

entrySmiles: O=C(CSc1nc(=O)[nH]c2c1CCCC2)Nc1cc(C(F)(F)F)ccc1Cl
attributeMeasured: Potency
result: inactive
//
entrySmiles: Cc1ccnc(N2C(=O)c3ccc([N+](=O)[O-])cc3C2=O)c1
attributeMeasured: Potency
result: inactive
//
entrySmiles: O=C(Nc1cc(C(F)(F)F)ccc1Cl)c1cc2nc3c(c(C(F)(F)F)n2n1)CCCC3
attributeMeasured: Potency
result: 2.69 µM (active)
//
entrySmiles: CN(C)S(=O)(=O)N1CCC(Oc2cccc(C(=O)NCCCC3CCCC3)c2)CC1
attributeMeasured: Potency
result: 16.9 µM (active)
//
entrySmiles: c1ccc(-n2nc3ccccc3n2)cc1
attributeMeasured: Potency
result: 19 µM (active)
//
entrySmiles: Cn1cc(S(=O)(=O)Nc2ccc(Cl)cc2Cl)c(=O)n(C)c1=O
attributeMeasured: Potency
result: inactive

Find the measured Potency: item Cc1ccc(S(=O)(=O)NCc2nc3nc(C)cc(C)n3n2)cc1 , target or system Luciferin 4-monooxygenase (Photinus pyralis). inactive

----------
Target: Luciferin 4-monooxygenase (Photinus pyralis)
Assay: qHTS profiling assay for firefly luciferase inhibitor/activator using purifed enzyme and Km concentrations of substrates (counterscreen for miR-21 project); note: nearly all actives have a fitted effect of over 55% in size
Details: purified FLuc, luminescence inhibition; series mostly up to 57.5 µM
Source text: MLPCN Grant: 1 R21 NS059478-01 (miR-21 grant) Assay Provider: NCGC NCGC Assay Overview: Firefly (Photinus pyralis) luciferase is one of the most commonly used transcriptional reporters for a number of reasons. […] Although light produced in a bioluminescence reaction is of lower intensity than that produced during fluorescence emission, this is offset by little to no background light inherent to luminescent assays. […]
The whole screen tested about 360,000 compounds, of which about 25,000 (6.9%) were called active. Not shown: some 9% with an inconclusive outcome. The call rests on the fitted dose curve; in most records, active means well fitted inhibition curve with a large enough effect; inconclusive means small, poorly fitted or top-dose-only effect; inactive means flat fitted curve, though single readings scatter. This excerpt belongs to a sample that is enriched for actives.
Bench note: report the call from active, inactive

compound: CC(C)(C)OC(=O)N[C@H](C(=O)OC(C)(C)C)c1ccc(Br)cc1
targetSystem: Luciferin 4-monooxygenase (Photinus pyralis)
class: inactive

compound: COCCNC(=O)NC(=O)COC(=O)C1(c2ccc(Cl)cc2)CC1
targetSystem: Luciferin 4-monooxygenase (Photinus pyralis)
class: inactive

compound: COC(=O)C1CCN(C(=O)c2cc(=O)[nH]c3ccccc23)CC1
targetSystem: Luciferin 4-monooxygenase (Photinus pyralis)
class: inactive

compound: COc1cc(C)c(C)cc1S(=O)(=O)N1CCCc2ccccc21
targetSystem: Luciferin 4-monooxygenase (Photinus pyralis)
class: inactive

compound: COc1cccc(/C=C/C(=O)OCC(=O)N2CCN(c3ccccc3)CC2)c1
targetSystem: Luciferin 4-monooxygenase (Photinus pyralis)
class: inactive

compound: COc1ccccc1NC(=O)c1oc2ccccc2c1NC(=O)COc1ccccc1OC
targetSystem: Luciferin 4-monooxygenase (Photinus pyralis)
class: inactive

compound: CC(=O)N1CCCc2ccc(NS(=O)(=O)c3ccc(F)cc3F)cc21
targetSystem: Luciferin 4-monooxygenase (Photinus pyralis)
class: inactive

compound: Cc1ccc(S(=O)(=O)N2CCCc3cc(NS(=O)(=O)c4cc(C)ccc4C)ccc32)cc1
targetSystem: Luciferin 4-monooxygenase (Photinus pyralis)
class: inactive

Hi, do you know how CC1CCN(C(=O)COC(=O)c2cc(=O)[nH]c3ccccc23)CC1 came out in this test? active

Each compound tested received a call. Report the one for Cc1ccc(/C=C/C(=O)OCC(=O)NCc2ccc(Cl)cc2)o1 . inactive
